- Protocol text: FRG1 promoter luciferase signal modulators, primary screen, FRG1 inhibition for FSHD, cell-based, C2C12 myotubes, firefly/Renilla luciferase, luminescence (AID 1084)
- Test parameters: higher = more signal, called active from +8 up or from −8 down
Property measured: z-score

* CC(C)CON=C1C[C@@H](O)[C@@H](O)[C@@H]2[C@@H]3C(=O)N(Cc4ccc5c(c4)OCO5)C(=O)[C@@H]3CC[C@H]12 | -0.261
* COC(=O)CC=C[C@@H](C)[C@@H](C=NOC(C)CN1CCCc2nc(C)c(C)cc21)OC (some centres not stated) | 0.422
* CO[C@H]1COC(=O)CC=C[C@@H](C)[C@H](OC)COC(=O)CCC[C@@H]1C | 0.444
* CC(C)(C)N1C(=O)[C@H]2[C@H]3[C@H](O)[C@H](O)CC(=O)[C@@H]3CC[C@H]2C1=O | -0.255
* CCCNC(=O)OC[C@H]1O[C@H](CCON=C(C)CCC(=O)OC[C@H]2O[C@H](c3ccccc3)C=C[C@@H]2Oc2ccc(OC)cc2)C=C[C@@H]1Oc1ccc(OC)cc1 | 0.862
* CC(=O)OC[C@H]1O[C@H](CC=NO[C@H](C)c2cn([C@H](CO)Cc3ccccc3)nn2)C=C[C@@H]1OC(C)=O | 0.235
* CCOC(=O)[C@H](CC(C)C)NC(=O)CCC1CC(OC(=O)NCCc2ccc(F)cc2)CC2(CCCC(COC(=O)NCCc3ccccc3OC)O2)O1 (some centres not stated) | 0.617

* * *

Catalogue of composite z-score values
- Target under test: Left-right determination factor 2 (Homo sapiens) (UniProt O00292)
- Sequence (O00292 whole entry, looked up): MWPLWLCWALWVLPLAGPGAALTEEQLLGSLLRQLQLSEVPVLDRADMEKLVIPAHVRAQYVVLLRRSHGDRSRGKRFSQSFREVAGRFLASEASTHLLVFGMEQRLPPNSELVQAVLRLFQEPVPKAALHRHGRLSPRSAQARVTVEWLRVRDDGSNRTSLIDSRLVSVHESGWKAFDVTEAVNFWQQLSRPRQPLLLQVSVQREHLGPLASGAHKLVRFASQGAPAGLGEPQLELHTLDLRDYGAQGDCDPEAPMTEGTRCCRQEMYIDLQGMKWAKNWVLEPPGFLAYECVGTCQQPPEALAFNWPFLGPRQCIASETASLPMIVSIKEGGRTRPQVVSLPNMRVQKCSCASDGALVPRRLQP
- Protocol text: LEFTY2 binders on small-molecule microarrays, primary screen, biochemical, small-molecule microarray, 635 nm fluorescence scan (AID 1110)
- Test parameters: LEFTY2 binding, higher = more signal
Property measured: composite z-score

- CO[C@H]1COC(=O)CC=C[C@H](C)[C@@H](OC)COC(=O)[C@@H](C)NC(=O)CC=C[C@@H]1C: 0.962
- CON=C1[C@H]2CCn3c(=O)n(-c4ccccc4)c(=O)n3[C@H]2[C@H](O)[C@@H]2O[C@H]12: 0.661
- CC(C)(C)N1C(=O)[C@H]2[C@H]3[C@H](O)C=CC(=O)[C@@H]3CC[C@H]2C1=O: 0.296
- COC(=O)CC=C[C@@H](C)[C@@H](C=NOC[C@H]1O[C@H](c2ccccc2)C=C[C@@H]1Oc1ccc(OC)cc1)NS(=O)(=O)c1ccc(C)cc1: -0.233
- COc1ccc(COC(=O)NN=C2C[C@@H](O)[C@@H](O)[C@@H]3[C@@H]4C(=O)N(Cc5ccccc5)C(=O)[C@@H]4CC[C@H]23)cc1: -0.475
- COc1ccc(O[C@H]2C=C[C@@H](c3ccccc3)O[C@@H]2COC(=O)CCC(C)=NOC[C@@H](O)[C@H]2O[C@@H]3OC(C)(C)O[C@@H]3[C@H]2O)cc1: 0.706
- COc1cccc([C@H]2Oc3ccc(OC)cc3C(=NO[C@H](C)c3cn([C@H](CO)Cc4ccccc4)nn3)[C@@H]2O)c1: 0.323
- CC(CCN1CCc2nc(-c3ccccc3)c(-c3ccccc3)cc2C1)=NOC[C@@H](O)COCc1ccco1: 0.718
- CO[C@@H]1COC(=O)[C@@H](C)COC(=O)[C@@H](C)NC(=O)CC=C[C@@H]1C: 1.51
- C[C@@H](c1ccccc1)N1C(=O)[C@H]2[C@H]3[C@H](O)[C@H](O)CC(=NO[C@@H]4O[C@H](CO)[C@@H](O)[C@H](O)[C@H]4O)[C@H]3CC[C@H]2C1=O: 0.414
- C#CCCCON=C1C[C@@H](O)[C@@H](O)[C@@H]2[C@@H]3C(=O)N(Cc4ccccc4)C(=O)[C@@H]3CC[C@@H]12: 0.26
- CC[C@@H](c1ccccc1)n1c(=O)n2n(c1=O)[C@H]1[C@H](O)[C@@H]3O[C@@H]3C(=NOC[C@@H](O)COCc3ccco3)[C@H]1CC2: 0.0632
- CO[C@H]1COC(=O)CC=C[C@@H](C)[C@H](OC)COC(=O)CCC[C@@H]1C: 0.797
